Target: ITSN1-5 SH3 domain (aa 1155-1214) (Homo sapiens)
Sequence (Q15811 1155-1214): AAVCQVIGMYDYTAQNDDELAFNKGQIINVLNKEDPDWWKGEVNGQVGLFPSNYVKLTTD
Peptide text beside a SMILES is read from it.
Entries and their pKd values follow.
Convention used: pKd is expressed as -log10 of the molar concentration.

Give its pKd value. Item: CC(C)C[C@H](NC(=O)[C@@H]1CCCN1C(=O)[C@@H](NC(=O)[C@H](CCCNC(=N)N)NC(=O)[C@@H]1CCCN1C(=O)[C@H](CO)NC(=O)[C@H](CC(N)=O)NC(=O)[C@@H]1CCCN1C(=O)[C@H](C)NC(=O)[C@@H](N)CO)[C@@H](C)O)C(=O)N[C@H](C(=O)N1CCC[C@H]1C(=O)N1CCC[C@H]1C(=O)N1CCC[C@H]1C(=O)N[C@@H](C)C(=O)N[C@@H](CO)C(=O)O)[C@@H](C)O [Peptide P1] (H-SAPNSPRTPLTPPPAS-OH) 4.64

Consider the compound shown here: CC[C@H](C)[C@H](NC(=O)[C@H](C)NC(=O)[C@@H]1CCCN1C(=O)[C@@H]1CCCN1C(=O)[C@H](CO)NC(=O)[C@H](CC(=O)O)NC(=O)[C@@H](N)CC(C)C)C(=O)N1CCC[C@H]1C(=O)N1CCC[C@H]1C(=O)N[C@@H](CCCNC(=N)N)C(=O)N[C@@H](CCC(N)=O)C(=O)N1CCC[C@H]1C(=O)N[C@H](C(=O)N[C@@H](CO)C(=O)N[C@@H](CCCCN)C(=O)O)[C@@H](C)O [Peptide P4] (H-LDSPPAIPPRQPTSK-OH) What is its recorded pKd? 4.92

* * *

Measured Kd, listed per entry.
Target: BIN1 SH3 domain (aa 520-593) (Homo sapiens)
Sequence (O00499 520-593): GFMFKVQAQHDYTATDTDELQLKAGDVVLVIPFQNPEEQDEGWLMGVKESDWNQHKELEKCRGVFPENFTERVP
Peptide text beside a SMILES is read from it.

Here's what some known entries look like.
{"molecule": "CC(C)C[C@H](NC(=O)[C@@H]1CCCN1C(=O)[C@@H](NC(=O)[C@H](CCCNC(=N)N)NC(=O)[C@@H]1CCCN1C(=O)[C@H](CO)NC(=O)[C@H](CC(N)=O)NC(=O)[C@@H]1CCCN1C(=O)[C@H](C)NC(=O)[C@@H](N)CO)[C@@H](C)O)C(=O)N[C@H](C(=O)N1CCC[C@H]1C(=O)N1CCC[C@H]1C(=O)N1CCC[C@H]1C(=O)N[C@@H](C)C(=O)N[C@@H](CO)C(=O)O)[C@@H](C)O [Peptide P1] (H-SAPNSPRTPLTPPPAS-OH)", "Kd": "> 200 µM"}
{"molecule": "CC[C@H](C)[C@H](N)C(=O)N[C@@H](C)C(=O)NCC(=O)N1CCC[C@H]1C(=O)N1CCC[C@H]1C(=O)N[C@H](C(=O)N1CCC[C@H]1C(=O)N1CCC[C@H]1C(=O)N[C@@H](CCCNC(=N)N)C(=O)N[C@@H](CCC(N)=O)C(=O)N[C@@H](CO)C(=O)O)C(C)C [Peptide P9] (H-IAGPPVPPRQS-OH)", "Kd": "47 µM"}
{"molecule": "CC(C)[C@H](NC(=O)[C@@H]1CCCN1C(=O)[C@@H]1CCCN1C(=O)[C@H](C)NC(=O)[C@H](CCC(=O)O)NC(=O)[C@H](CS)NC(=O)[C@@H](N)CCCNC(=N)N)C(=O)N1CCC[C@H]1C(=O)N1CCC[C@H]1C(=O)N[C@@H](CCCNC(=N)N)C(=O)N[C@@H](CCCNC(=N)N)C(=O)N[C@@H](CCC(=O)O)C(=O)N[C@@H](CCCNC(=N)N)C(=O)NCC(=O)O [RP2, reference compound] (H-RCEAPPVPPRRERG-OH)", "Kd": "48 µM"}
{"molecule": "CC(C)C[C@H](NC(=O)[C@H](Cc1c[nH]cn1)NC(=O)[C@H](CC(C)C)NC(=O)[C@@H]1CCCN1C(=O)[C@H](CO)NC(=O)[C@H](CO)NC(=O)[C@@H](N)CO)C(=O)N[C@@H](CCC(N)=O)C(=O)N1CCC[C@H]1C(=O)N1CCC[C@H]1C(=O)N1CCC[C@H]1C(=O)N[C@@H](CC(C)C)C(=O)NCC(=O)N[C@@H](CCCCN)C(=O)N[C@@H](CCCCN)C(=O)O [Peptide P6] (H-SSSPLHLQPPPLGKK-OH; N-terminus and C-terminus assumed)", "Kd": "> 200 µM"}
{"molecule": "CC[C@H](C)[C@H](NC(=O)[C@H](Cc1c[nH]cn1)NC(=O)[C@@H](N)CCC(N)=O)C(=O)N1CCC[C@H]1C(=O)N[C@@H](CCCCN)C(=O)N[C@@H](CC(C)C)C(=O)N1CCC[C@H]1C(=O)N1CCC[C@H]1C(=O)N[C@@H](CCCCN)C(=O)N[C@H](C(=O)N[C@@H](Cc1ccc(O)cc1)C(=O)O)[C@@H](C)O [Peptide P10] (H-QHIPKLPPKTY-OH; N-terminus and C-terminus assumed)", "Kd": "> 200 µM"}

# lookup: Kd of CC[C@H](C)[C@H](NC(=O)[C@H](C)NC(=O)[C@@H]1CCCN1C(=O)[C@@H]1CCCN1C(=O)[C@H](CO)NC(=O)[C@H](CC(=O)O)NC(=O)[C@@H](N)CC(C)C)C(=O)N1CCC[C@H]1C(=O)N1CCC[C@H]1C(=O)N[C@@H](CCCNC(=N)N)C(=O)N[C@@H](CCC(N)=O)C(=O)N1CCC[C@H]1C(=O)N[C@H](C(=O)N[C@@H](CO)C(=O)N[C@@H](CCCCN)C(=O)O)[C@@H](C)O [Peptide P4] (H-LDSPPAIPPRQPTSK-OH) > 200 µM
